Tested on: Plasmodium falciparum
assay text: Confirmatory screen in NF54 pLDH assay, in single point, at 2uM, 72h
Type: functional, Erythrocyte
condition label: timepoint 72 hour
The campaign covered roughly 4,800 compounds. About 410 (8.5%) showed an effect of 50% or more. Many of the other results were omitted from the sample, so strong results are more common in it than they were.
We begin with a simple list: items and their reported % Inhibition.

{"compound": "Cc1c(N2CCC(C(=O)NC[C@H]3CCCO3)CC2)c(=O)n(CC(C)C)c(=O)n1-c1ccccc1", "endpoint unit": "%", "% Inhibition": 4}
{"compound": "C[C@@H]1C[C@@H](Nc2ccccc2)c2ccccc2N1C(=O)COc1ccc(Br)cc1", "endpoint unit": "%", "% Inhibition": 10}
{"compound": "CC[C@@](C)(C(=O)NC1CCCC1)N(Cc1ccco1)C(=O)c1ccc2c(c1)OCO2", "endpoint unit": "%", "% Inhibition": -9}
{"compound": "c1ccc(-c2nnc3nc(N4CCOCC4)nc(N4CCOCC4)n23)cc1", "endpoint unit": "%", "% Inhibition": 6}
{"compound": "O=C1CCC(Nc2ccc(Br)cn2)C(C2CC2)N1 (stereo not given)", "endpoint unit": "%", "% Inhibition": 15}

====

Test system: Plasmodium falciparum
assay text: Confirmatory screen in NF54 pLDH assay, in single point, at 2uM, 72h
Format: functional, Erythrocyte
condition label: timepoint 72 hour
Out of some 4,800 compounds screened, about 410 (8.5%) showed an effect of 50% or more. This is one part of a sample in which strong results are shown more often than they occur.

{"compound": "c1ccc(C2=NN(c3ccc(-c4cc(-c5ccccc5)[n+](-c5ccccc5)c(-c5ccccc5)c4)cc3)[C@H](c3ccccc3)C2)cc1", "study system": "Plasmodium falciparum", "endpoint unit": "%", "% Inhibition": 97}
{"compound": "Cc1cc2ncn(CN3CC[C@@H](NC(=O)OC(C)(C)C)C3)c2cc1C", "study system": "Plasmodium falciparum", "endpoint unit": "%", "% Inhibition": -7}
{"compound": "COc1ccc(C2=NN(C(C#N)c3cccc(OC)c3O)C(c3ccccc3)C2)cc1 (stereo not given)", "study system": "Plasmodium falciparum", "endpoint unit": "%", "% Inhibition": 3}
{"compound": "CN(C)c1cc(C(=O)N2CCOC3CCCCC32)ccn1 (stereo not given)", "study system": "Plasmodium falciparum", "endpoint unit": "%", "% Inhibition": 3}
{"compound": "CCCOc1cccc2c(NC3CCN(CCOC)CC3)ccnc12", "study system": "Plasmodium falciparum", "endpoint unit": "%", "% Inhibition": 48}
{"compound": "CC1CC(Nc2ncnc3cc(Br)ccc23)CCN1C (stereo not given)", "study system": "Plasmodium falciparum", "endpoint unit": "%", "% Inhibition": 95}
{"compound": "O=C(NCC1CC12CCc1ccccc12)NC1CC2CCC1O2 (stereo not given)", "study system": "Plasmodium falciparum", "endpoint unit": "%", "% Inhibition": 1}
{"compound": "N#CC(c1ccc(Cl)cc1)N1N=C(c2ccccc2)CC1c1ccccc1 (stereo not given)", "study system": "Plasmodium falciparum", "endpoint unit": "%", "% Inhibition": 10}
{"compound": "Cc1nc(NC(=O)c2ccn(COc3ccc(F)c(Cl)c3)n2)sc1C", "study system": "Plasmodium falciparum", "endpoint unit": "%", "% Inhibition": -8}
{"compound": "COc1ccc(CCNCC(=O)Nc2c3c(nc4ccccc24)N(C)CC3)cc1OC", "study system": "Plasmodium falciparum", "endpoint unit": "%", "% Inhibition": 6}

====

System: Plasmodium falciparum
assay text: Confirmatory screen in NF54 pLDH assay, in single point, at 2uM, 72h
Format: functional, Erythrocyte
condition label: timepoint 72 hour
About 410 (8.5%) of roughly 4,800 compounds showed an effect of 50% or more. What follows is part of a selection rich in strong results, with near analogues and random picks from the rest.
parameter measured: % Inhibition (%)

{"molecule smiles": "CCNC(=O)c1nc(-c2ccncc2)cs1", "reading": -16}
{"molecule smiles": "COc1cc(C(C)(C)C)c(OCC(=O)N(c2ccccc2)c2ccccc2)cc1C(C)(C)C", "reading": 7}
{"molecule smiles": "Clc1ccc(-c2onc3c2CCCC3)cc1", "reading": 9}
{"molecule smiles": "O=C(Nc1onc2c1CCC2)c1ccc2ccccc2c1", "reading": 41}

====

Test system: Plasmodium falciparum
assay text: Confirmatory screen in NF54 pLDH assay, in single point, at 2uM, 72h
Assay type: functional, Erythrocyte
condition label: timepoint 72 hour
The campaign covered roughly 4,800 compounds. About 410 (8.5%) showed an effect of 50% or more. This is one part of a sample in which strong results are shown more often than they occur.

{"molecule smiles": "O=C(OCc1cncs1)c1ccccc1", "study system": "Plasmodium falciparum", "% Inhibition [%]": 10}
{"molecule smiles": "COc1ccc(NC(=O)C2=Cc3cc(Cl)cc(OC)c3OC=C2)cc1", "study system": "Plasmodium falciparum", "% Inhibition [%]": -1}
{"molecule smiles": "COc1ccc(Nc2nc(C(=O)Nc3ncc(C)s3)cs2)cc1OC", "study system": "Plasmodium falciparum", "% Inhibition [%]": 13}
{"molecule smiles": "COc1cc(C(=O)NC(C)(C)c2c(C)noc2C)on1", "study system": "Plasmodium falciparum", "% Inhibition [%]": 7}
{"molecule smiles": "N[C@H]1C[C@H](c2cc(NCCCc3cccnc3)nc(C3CC3)n2)C1", "study system": "Plasmodium falciparum", "% Inhibition [%]": 77}
{"molecule smiles": "CCOc1cc(C(=O)Nc2ccc3nc4c(c(Nc5ccc(OC)c(OC)c5)c3c2)CCCC4)cc(OCC)c1OCC", "study system": "Plasmodium falciparum", "% Inhibition [%]": 103}

====

Test system: Plasmodium falciparum
assay text: Confirmatory screen in NF54 pLDH assay, in single point, at 2uM, 72h
Format: functional, Erythrocyte
condition label: timepoint 72 hour
About 410 (8.5%) of roughly 4,800 compounds showed an effect of 50% or more. Many of the other results were omitted from the sample, so strong results are more common in it than they were.
The label depends only on % Inhibition: Met if it is at least 10%, Not met if it is smaller.

{"molecule": "COC(=O)c1c(NC(C)=O)c2cc(NC3CCOCC3)cnc2n1CCc1ccc(OC)cc1", "classification": "Met"}
{"molecule": "CCN1C(=O)Cc2cc(NS(=O)(=O)Cc3ccccc3)ccc21", "classification": "Met"}
{"molecule": "Cn1nc(C(=O)NC2CCCCC2)cc1C(=O)NC1CCCCC1", "classification": "Met"}
{"molecule": "COCCOC(=O)c1cc(C(F)(F)F)cc(C(=O)OCCOC)n1", "classification": "Met"}
{"molecule": "Oc1nc(-c2cccc(C(F)(F)F)c2)sc1-c1ccccc1", "classification": "Not met"}
{"molecule": "Oc1ccccc1-c1cnc(C(F)(F)F)s1", "classification": "Met"}
{"molecule": "Cc1nscc1C(=O)Nc1cccc(OCCN2CCCC2)c1", "classification": "Not met"}
{"molecule": "CCc1sc(N(C(=O)CCc2ccccc2)c2ccc(C)cc2C)nc1-c1ccc(OC)cc1", "classification": "Not met"}
{"molecule": "COc1ccccc1CC(=O)NC[C@H](C)O", "classification": "Met"}
{"molecule": "Cc1ccc(CN2CCN(C[C@@H](O)Cn3c4ccccc4n4c(=O)cc(C)c(C#N)c34)CC2)c(C)c1", "classification": "Met"}
{"molecule": "O=c1[nH]c2ccccc2nc1-c1cc(Br)ccc1NS(=O)(=O)c1cccc2nsnc12", "classification": "Not met"}
{"molecule": "CN(C)CCCNc1nc(N2CCCC2)c2c(c1C#N)CCN(C)C2", "classification": "Met"}
{"molecule": "COc1cc(C(=O)Nc2scnc2C)cc(OC)c1OC", "classification": "Not met"}
{"molecule": "CCc1c(NC(=O)[C@@H](C)C2CC2)nnn1CCc1ccc(OC)cc1", "classification": "Met"}
{"molecule": "Cc1cc(Br)ccc1CN(C)S(C)(=O)=O", "classification": "Not met"}
{"molecule": "CC(C1Cc2ccccc2O1)N(C)Cc1nccn1S(=O)(=O)N(C)C (stereo unspecified)", "classification": "Not met"}

====

System: Plasmodium falciparum
assay text: Confirmatory screen in NF54 pLDH assay, in single point, at 2uM, 72h
Format: functional, Erythrocyte
condition label: timepoint 72 hour
In all, about 4,800 compounds went through this assay and about 410 (8.5%) showed an effect of 50% or more. Many of the other results were omitted from the sample, so strong results are more common in it than they were.

{"compound": "CNC(=O)c1cc(Br)cnc1NC", "% Inhibition": "10%"}
{"compound": "C[C@@]12CO[C@@H](COc3ccccc3)O[C@@H]1CC[C@]1(C)C2CC[C@@H](O)[C@H]1CC(=O)N1CCC[C@H]1CO (stereo partly specified)", "% Inhibition": "6%"}
{"compound": "Fc1ccccc1N1CCN(C2CCN(Cc3c[nH]c4ccccc34)CC2)CC1", "% Inhibition": "33%"}
{"compound": "CCN(CC)C(=O)c1cnc2snc(C)c2c1N1CCC(C(=O)Nc2c(C)cc(C)cc2C)CC1", "% Inhibition": "34%"}
{"compound": "COc1ccc2[nH]c3c(c2c1)CC(C(=O)O)NC3c1ccc(OC)c(CN2CCN(c3ccccc3F)CC2)c1 (stereo unspecified)", "% Inhibition": "72%"}
{"compound": "CC1CC(C)CN(C(=O)c2cc(NC(=O)c3ccccc3)n(C)n2)C1 (stereo unspecified)", "% Inhibition": "-14%"}
{"compound": "COc1ccc(CNC(=O)c2ccc(N3C(=O)[C@@H]4Cc5c([nH]c6ccccc56)C(c5cccc(OC)c5)N4C3=O)cc2)cc1 (stereo partly specified)", "% Inhibition": "32%"}
{"compound": "CCc1ccc(NC(=O)[C@@H]2CCn3c(C(=O)c4ccccc4)ccc32)cc1", "% Inhibition": "6%"}
{"compound": "Cc1ccc(C)c(NC(=O)N2CC(n3cnnc3-c3ccccc3)C2)c1", "% Inhibition": "0%"}
{"compound": "O=C(Nc1ccccc1)C(=O)Nc1ccc2ncc(Cl)n2c1", "% Inhibition": "7%"}
{"compound": "CCc1cc(C(=O)N2CCCCC2)c2c(C)nn(-c3ccc(OC)cc3)c2n1", "% Inhibition": "10%"}
{"compound": "CN1C(=O)[C@H](O)N(c2cccc3ccccc23)C1=O", "% Inhibition": "9%"}
{"compound": "CCN1CCC2CCC(C1)N2C(=O)Nc1ccc(OC2CCC2)c(F)c1 (stereo unspecified)", "% Inhibition": "-18%"}
{"compound": "O=C1NCCC[C@@H]1Nc1ccc(C(F)(F)F)nn1", "% Inhibition": "2%"}
{"compound": "Cc1ccc(NC(=O)CC(=O)O)c(C)c1", "% Inhibition": "-5%"}
{"compound": "CCN1C(=O)[C@]2(NC3(CCCCC3)C(=O)N2CC)c2ccccc21", "% Inhibition": "-11%"}
